Molecular target: retinoic acid receptor-γ (RARγ) (Homo sapiens, UniProt P13631)
Construct: RARγ LBD
Sequence (P13631 185-419 limits assumed): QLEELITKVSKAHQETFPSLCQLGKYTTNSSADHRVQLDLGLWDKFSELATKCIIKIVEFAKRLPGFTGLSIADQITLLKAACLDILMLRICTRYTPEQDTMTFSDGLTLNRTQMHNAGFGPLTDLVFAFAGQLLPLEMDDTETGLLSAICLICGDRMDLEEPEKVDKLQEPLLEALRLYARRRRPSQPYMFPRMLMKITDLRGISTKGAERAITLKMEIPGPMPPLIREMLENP
Assay: competitive radioligand displacement of [3H]atRA from purified RARγ LBD; supported by GFP-RARγ fluorescence quenching in cells and reporter antagonism
Outcome Measure: IC50
Value and unit, in that order.

For COc1ccc(-c2cc(=O)c3c(O)cc(O)cc3o2)cc1 [acacetin, 5,7-dihydroxy-4′-methoxyflavone] the molecule record lists IC50 as 12.8 µM
